test-summary: in vitro
Type: in vitro ADME
condition-parameters: human, Caco-2, pH 7.4, Test 1, 10 μM, 2 hours; read-out: Recovery (%) A→B
Hi! Could you tag entries with recovery at 2 h, 10 μM below 70% as YES, and those at or above as NO? Much appreciated.

Lab note: recovery at 2 h, 10 μM threshold 70%. Does this compound come in strictly under it? `COCCOCCOCCOc1ccc2[nH]c(C(=O)N3CCN(c4ncccc4NC(C)C)CC3)cc2c1`
YES

Please answer likewise for `COCCOCCOCCOCCOc1ccc2[nH]c(C(=O)N3CCN(c4ncccc4NC(C)C)CC3)cc2c1`
NO

====

test-summary: in vitro
Type: in vitro ADME
condition-parameters: human, Caco-2, pH 7.4, Test 2, 10 μM, 2 hours, pH 7.4; read-out: Average Papp, A→B
Could you mark each record true (1) if its Papp A→B at 2 hours, 10 μM falls strictly under 40 ×10⁻⁶ cm/s, and false (0) if it equals or exceeds it?

For this compound, is Papp A→B at 2 hours, 10 μM lower than 40 ×10⁻⁶ cm/s? `COCCOCCOCCOc1ccc2[nH]c(C(=O)N3CCN(c4ncccc4NC(C)C)CC3)cc2c1`
false (0)

Let us now turn to `COCCOCCOCCNc1ccc2[nH]c(C(=O)N3CCN(c4ncccc4NC(C)C)CC3)cc2c1`
true (1)

====

System: CEM-SS cells
test-summary: Toxicity XTT in CEM-SS cells (drug resistant strain assay)
Format: cell-based
condition-parameters: run with HIV-1 strain NL4-3Y181C; read-out: TC50 (the source's name)
readout-name: CC50

What does the data say about its CC50? Entry: CC(C)Nc1cccnc1N1CCN(C(=O)c2cc3cc(NS(C)(=O)=O)ccc3[nH]2)CC1 [Delavirdine, reference compound]
> 1000 nM

====

test-summary: Log P determination (Sirius GLpKa)
Type: physicochemical
condition-parameters: Partition Log P, 25° C.; read-out: Log P
readout-name: logP
Answers are plain numbers.

Examples from the recorded data:
- COCCOCCOCCOCCOCCOCCOCCOc1ccc2[nH]c(C(=O)N3CCN(c4ncccc4NC(C)C)CC3)cc2c1: 2.73
- COCCOCCOCCOc1ccc2[nH]c(C(=O)N3CCN(c4ncccc4NC(C)C)CC3)cc2c1: 1.98
- COCCOCCOCCOCCOCCOCCOCCOCCOc1ccc2[nH]c(C(=O)N3CCN(c4ncccc4NC(C)C)CC3)cc2c1: 2.58
- COCCOCCOCCOCCOCCOCCOc1ccc2[nH]c(C(=O)N3CCN(c4ncccc4NC(C)C)CC3)cc2c1: 2.65

Now take the following compound into account.
What value of measured logP is listed for `COCCOCCOCCOCCOc1ccc2[nH]c(C(=O)N3CCN(c4ncccc4NC(C)C)CC3)cc2c1` ?
2.22

====

For each of the compounds below, state its CC50.
test-summary: Toxicity XTT in CEM-SS cells (drug resistant strain assay)
Format: cell-based
condition-parameters: human, CEM-SS cells, run with HIV-1 strain A17K103N/Y181C; read-out: TC50 (the source's name)

Solved cases below.
* Cc1ccnc2c1NC(=O)c1cccnc1N2C1CC1 [Nevirapine, reference compound] | > 10000 nM
* CC(C)Nc1cccnc1N1CCN(C(=O)c2cc3cc(NS(C)(=O)=O)ccc3[nH]2)CC1 [Delavirdine, reference compound] | > 500 nM
* COCCOCCOCCOc1ccc2[nH]c(C(=O)N3CCN(c4ncccc4NC(C)C)CC3)cc2c1 [mPEG3-O-Delavirdine, 5-O-mPEG3-Delavirdine] | > 5000 nM

List CC50 for every entry below, keeping the order given.
1. COCCNc1ccc2[nH]c(C(=O)N3CCN(c4ncccc4NC(C)C)CC3)cc2c1 [5-mPEG1-NH-Delavirdine, 5-mPEG-NH-Delavirdine]
2. Cc1cn([C@H]2C[C@H](N=[N+]=[N-])[C@@H](CO)O2)c(=O)[nH]c1=O [AZT, reference compound]
3. COCCOCCNc1ccc2[nH]c(C(=O)N3CCN(c4ncccc4NC(C)C)CC3)cc2c1 [5-mPEG2-NH-Delavirdine]
4. COCCOCCOCCOCCOc1ccc2[nH]c(C(=O)N3CCN(c4ncccc4NC(C)C)CC3)cc2c1 [mPEG4-O-Delavirdine, 5-O-mPEG4-Delavirdine]

1: > 1000 nM; 2: > 500 nM; 3: > 1000 nM; 4: > 5000 nM
